Task for the reader: assign each of the following molecules its reported pIC50.
- Subject of test: A-Raf kinase (Homo sapiens, UniProt P10398, Y301D/Y302D)
- Construct: purchased Sigma
- Sequence (P10398 with tags, fused parts or gaps Y301D/Y302D): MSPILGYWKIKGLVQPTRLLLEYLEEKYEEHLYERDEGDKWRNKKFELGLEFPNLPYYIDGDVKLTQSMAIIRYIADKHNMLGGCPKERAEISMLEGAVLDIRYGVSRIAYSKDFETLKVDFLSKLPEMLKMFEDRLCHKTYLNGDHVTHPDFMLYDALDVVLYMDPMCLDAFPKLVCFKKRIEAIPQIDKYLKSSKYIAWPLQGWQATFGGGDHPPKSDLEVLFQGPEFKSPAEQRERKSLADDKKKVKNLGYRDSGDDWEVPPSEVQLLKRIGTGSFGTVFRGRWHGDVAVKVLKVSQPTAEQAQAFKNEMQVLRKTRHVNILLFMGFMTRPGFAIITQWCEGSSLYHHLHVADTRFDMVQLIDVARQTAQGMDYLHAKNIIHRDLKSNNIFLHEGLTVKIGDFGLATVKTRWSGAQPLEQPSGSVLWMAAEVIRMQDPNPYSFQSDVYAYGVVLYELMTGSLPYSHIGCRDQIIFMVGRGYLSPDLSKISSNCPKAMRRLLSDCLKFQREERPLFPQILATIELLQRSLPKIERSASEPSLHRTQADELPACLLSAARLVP
- Experimental protocol: Biochemical assay for A-Raf.1 (coupled pyruvate kinase/lactate dehydrogenase)
- Details: read-out: ARAF.1 IC50
pIC50: −log10 of the molar value.

Req: Reported pIC50, molecule `COC(C)(C)CCNC(=O)Nc1cc(-c2nccc(-c3ccnc(NC(=O)C4CC4)c3)n2)c(C)cc1F` : ____
Resp: 6.00 to 6.30

Req: Reported pIC50, molecule COC(=O)Nc1cc(-c2cnnc(-c3cc(NC(=O)N4CCC(C(C)(C)O)C4)ccc3C)c2)ccn1 (stereo not drawn) : ____
Resp: < 6.00

Req: Reported pIC50, molecule `COC(=O)Nc1cc(-c2cc(-c3cc(NC(=O)NCCC(C)(C)C)cnc3C)ccn2)ccn1` : ____
Resp: < 6.00

Req: Reported pIC50, molecule `Cc1cc(F)c(NC(=O)NCCC2(C(F)(F)F)CC2)cc1-c1cc(OCCO)nc(C2CCOCC2)c1` : ____
Resp: < 6.00

Req: Reported pIC50, molecule CCC(C)CCNC(=O)Nc1cnc(C)c(-c2ccnc(-c3ccnc(NC(=O)C4CC4)c3)c2)c1 (stereo not drawn) : ____
Resp: < 6.00

Req: Reported pIC50, molecule `COC(=O)Nc1cc(-c2cc(-c3cc(NC(=O)NC[C@H]4CCO4)c(F)cc3C)cc(OCCO)n2)ccn1` : ____
Resp: < 6.00

Req: Reported pIC50, molecule COC(=O)Nc1cc(-c2cnnc(-c3cc(NC(=O)N4CCC(CC(F)(F)F)C4)c(F)cc3C)c2)ccn1 (stereo not drawn) : ____
Resp: < 6.00

Req: Reported pIC50, molecule `Cc1ccc(NC(=O)NC2CCCCCC2)cc1-c1cc(OCCO)nc(N2CCOCC2)c1` : ____
Resp: < 6.00

Req: Reported pIC50, molecule `COC1(CCNC(=O)Nc2cnc(C)c(-c3ccnc(-c4ccnc(NC(=O)C5CC5)c4)n3)c2)CC1` : ____
Resp: < 6.00

Req: Reported pIC50, molecule `Cc1ccc(NC(=O)NCCC(C)(C)C)cc1-c1cc(-c2cnn(C)c2)nc(N2CCOCC2)c1` : ____
Resp: < 6.00

Req: Reported pIC50, molecule `Cc1cc(F)c(NC(=O)N2CC[C@H](C(F)(F)F)C2)cc1-c1cncc(-c2cc(NC(=O)C3CC3)ncn2)c1` : ____
Resp: 6.30 to 7.00

Req: Reported pIC50, molecule `Cc1cc(F)c(NC(=O)NCCC(C)(C)C#N)cc1-c1cc(OCCO)nc(-c2ccncc2)c1` : ____
Resp: < 6.00

###

- Subject of test: C-Raf kinase (Homo sapiens, UniProt P04049, Y340D/Y341D)
- Construct: Y340D,; GST (N); purchased Sigma
- Sequence (P04049 307-648 Y340D/Y341D): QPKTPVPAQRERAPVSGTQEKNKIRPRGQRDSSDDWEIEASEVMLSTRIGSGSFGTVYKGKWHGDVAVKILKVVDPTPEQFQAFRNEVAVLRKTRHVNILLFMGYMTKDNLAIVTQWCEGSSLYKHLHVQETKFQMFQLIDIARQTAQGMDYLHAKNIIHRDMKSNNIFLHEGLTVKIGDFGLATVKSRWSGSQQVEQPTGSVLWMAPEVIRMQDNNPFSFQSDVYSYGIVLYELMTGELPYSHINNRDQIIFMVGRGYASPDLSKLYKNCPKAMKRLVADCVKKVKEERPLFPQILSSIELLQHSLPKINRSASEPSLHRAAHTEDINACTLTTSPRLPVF
- Experimental protocol: Biochemical assay for C-Raf.1 (coupled pyruvate kinase/lactate dehydrogenase)
- Details: read-out: CRAF.1 IC50
pIC50: −log10 of the molar value.
Task for the reader: assign each of the following molecules its reported pIC50.

Req: Reported pIC50, molecule `COC(=O)Nc1cc(-c2cnnc(-c3cc(NC(=O)NCCC(C)(C)F)c(F)cc3C)c2)ccn1` : ____
Resp: ≥ 7.00

Req: Reported pIC50, molecule `COC(C)(C)CCNC(=O)Nc1cc(-c2cc(OCCO)nc(-c3ccnc4[nH]ccc34)c2)c(C)cc1F` : ____
Resp: ≥ 7.00

Req: Reported pIC50, molecule `COC(=O)Nc1cc(-c2cncc(-c3cc(NC(=O)N4CCCCCC4)ccc3C)c2)ccn1` : ____
Resp: 6.30 to 7.00

Req: Reported pIC50, molecule `Cc1cc(F)c(NC(=O)NCCC2(C)CC2)cc1-c1cccc(-c2ccnc(NC(=O)C3CC3)c2)c1` : ____
Resp: ≥ 7.00

Req: Reported pIC50, molecule `Cc1cc(F)c(NC(=O)NCC23CC(F)(C2)C3)cc1-c1cc(OCCO)nc(-c2ccnc3[nH]ncc23)c1` : ____
Resp: ≥ 7.00

Req: Reported pIC50, molecule Cc1ccc(NC(=O)N2CCC(C(F)(F)F)C2)cc1-c1cccc(-c2cc(NC(=O)C3CC3)ncn2)c1 (stereo not drawn) : ____
Resp: ≥ 7.00

###

- Subject of test: C-Raf kinase (Homo sapiens, UniProt P04049, Y340D/Y341D)
- Construct: Y340D,; GST (N); purchased Sigma
- Experimental protocol: Biochemical assay for C-Raf.1 (coupled pyruvate kinase/lactate dehydrogenase)
- Details: read-out: CRAF.1 IC50
pIC50: −log10 of the molar value.
Measurement type: pIC50

Req: Reported pIC50, compound `CC(=O)Nc1cc(-c2cc(-c3cc(NC(=O)Nc4ccc(C(F)(F)F)cc4)cnc3C)ccn2)ccn1` : ____
Resp: ≥ 7.00

Req: Reported pIC50, compound COC(=O)Nc1cc(-c2cnnc(-c3cc(NC(=O)N4CCC(C(C)(C)O)C4)ccc3C)c2)ccn1 (stereo not shown) : ____
Resp: 6.30 to 7.00

Req: Reported pIC50, compound CCC(C)CCNC(=O)Nc1cnc(C)c(-c2ccnc(-c3ccnc(NC(=O)C4CC4)c3)c2)c1 (stereo not shown) : ____
Resp: ≥ 7.00

Req: Reported pIC50, compound `CNC(=O)c1cc(-c2cnnc(-c3cc(NC(=O)N4CC[C@@H](OC)C4)cnc3C)c2)ccn1` : ____
Resp: < 6.00

Req: Reported pIC50, compound `Cc1cc(F)c(NC(=O)NC2CC3(COC3)C2)cc1-c1cc(OCCO)nc(-c2ccnc3[nH]ncc23)c1` : ____
Resp: ≥ 7.00

Req: Reported pIC50, compound `COC1(CCNC(=O)Nc2cnc(C)c(-c3cccc(-c4cc(NC(=O)C5CC5)ncn4)c3)c2)CC1` : ____
Resp: ≥ 7.00

Req: Reported pIC50, compound `COC[C@H]1CCN(C(=O)Nc2cnc(C)c(-c3cc(OCCO)nc(-c4ccnc(NC(=O)OC)c4)c3)c2)C1` : ____
Resp: 6.30 to 7.00

###

Task for the reader: assign each of the following molecules its reported IC50.
- Subject of test: C-Raf kinase (Homo sapiens, UniProt P04049, Y340D/Y341D)
- Construct: Y340D,; GST (N); purchased Sigma
- Experimental protocol: Biochemical assay for C-Raf.1 (coupled pyruvate kinase/lactate dehydrogenase)
- Details: read-out: CRAF.1 IC50

Req: Reported IC50, molecule `COC(=O)Nc1cc(-c2nc(OCCO)cc(-c3cc(NC(=O)NCCC(C)(C)F)c(F)cc3C)n2)ccn1` : ____
Resp: ≤ 100 nM

Req: Reported IC50, molecule `Cc1cc(F)c(NC(=O)NCCC(C)(C)F)cc1-c1ccnc(-c2ccnc(NC(=O)C3CC3)c2)c1` : ____
Resp: ≤ 100 nM

Req: Reported IC50, molecule `Cc1ccc(NC(=O)Nc2cnn(C(C)(C)C)c2)cc1-c1cc(OCCO)nc(N2CCOCC2)c1` : ____
Resp: 100 to 500 nM

Req: Reported IC50, molecule `Cc1cc(F)c(NC(=O)NCCC(C)(C)F)cc1-c1cc(OCCO)nc(-c2ccnc3[nH]ccc23)c1` : ____
Resp: ≤ 100 nM

Req: Reported IC50, molecule `COC(=O)Nc1cc(-c2cnnc(-c3cc(NC(=O)N4CC[C@@H](OC)C4)cnc3C)c2)ccn1` : ____
Resp: > 1000 nM

Req: Reported IC50, molecule `Cc1ccc(NC(=O)NCCC(C)(C)C)cc1-c1cc(N2CCOCC2)nc(N2CCOCC2)c1` : ____
Resp: ≤ 100 nM

Req: Reported IC50, molecule `CNC(=O)c1cc(-c2cc(-c3cc(NC(=O)Nc4ccnc(C(C)(C)C#N)c4)ccc3C)ccn2)ccn1` : ____
Resp: ≤ 100 nM

Req: Reported IC50, molecule `Cc1cc(F)c(NC(=O)NCCC(C)(C)F)cc1-c1ccnc(-c2ccnc(NC(=O)C3CC3)c2)n1` : ____
Resp: ≤ 100 nM

Req: Reported IC50, molecule `COC(=O)Nc1cc(-c2cnnc(-c3cccc(NC(=O)N4CC[C@@H](OC)C4)c3)c2)ccn1` : ____
Resp: > 1000 nM

Req: Reported IC50, molecule `Cc1ccc(NC(=O)N[C@@H]2CCc3ccccc32)cc1-c1cc(OCCO)nc(N2CCOCC2)c1` : ____
Resp: ≤ 100 nM

Req: Reported IC50, molecule `CNC(=O)c1cc(-c2cncc(-c3cc(NC(=O)N4CC[C@H](C(F)(F)F)C4)c(F)cc3C)c2)ccn1` : ____
Resp: 100 to 500 nM

Req: Reported IC50, molecule `Cc1cc(F)c(NC(=O)NCCC2(C)CC2)cc1-c1ccnc(-c2ccnc(NC(=O)C3CC3)c2)c1` : ____
Resp: ≤ 100 nM

Req: Reported IC50, molecule `COC(=O)Nc1cc(-c2cccc(-c3cc(NC(=O)NCCC4(C)CC4)cnc3C)c2)ncn1` : ____
Resp: ≤ 100 nM

Req: Reported IC50, molecule `Cc1ncc(NC(=O)NCCC(C)(C)C)cc1-c1cc(N2CCOCC2)c(=O)n(C)c1` : ____
Resp: 500 to 1000 nM

Req: Reported IC50, molecule `Cc1cc(F)c(NC(=O)NCCC(F)F)cc1-c1cc(OCCO)nc(-c2ccnc(NC(=O)C3CC3)c2)c1` : ____
Resp: ≤ 100 nM

Req: Reported IC50, molecule `COC(=O)Nc1cc(-c2cc(-c3cc(NC(=O)N4CCC(C)(C)C4)cnc3C)ccn2)ccn1` : ____
Resp: 100 to 500 nM

Req: Reported IC50, molecule `COC(=O)Nc1cc(-c2cc(-c3cc(NC(=O)NCCC(C)(C)C)cnc3C)ccn2)ccn1` : ____
Resp: ≤ 100 nM

Req: Reported IC50, molecule `COC1(CCNC(=O)Nc2cnc(C)c(-c3ccnc(-c4ccnc(NC(=O)C5CC5)c4)n3)c2)CC1` : ____
Resp: ≤ 100 nM

Req: Reported IC50, molecule `COC(C)(C)CCNC(=O)Nc1cc(-c2cc(OCCO)nc(-c3ccnc4[nH]ncc34)c2)c(C)cc1F` : ____
Resp: ≤ 100 nM

Req: Reported IC50, molecule `Cc1ccc(NC(=O)Nc2cnc(C(F)(F)F)s2)cc1-c1cc(OCCO)nc(N2CCOCC2)c1` : ____
Resp: ≤ 100 nM

Req: Reported IC50, molecule `COC[C@H]1CCN(C(=O)Nc2cnc(C)c(-c3ccnc(-c4ccnc(NC(=O)OC)c4)c3)c2)C1` : ____
Resp: 100 to 500 nM

Req: Reported IC50, molecule `COC(C)(C)CCNC(=O)Nc1cc(-c2cc(-c3ccnc(NC(=O)C4CC4)c3)cnn2)c(C)cc1F` : ____
Resp: ≤ 100 nM

Req: Reported IC50, molecule `CC(=O)Nc1cc(-c2cc(-c3cc(NC(=O)NCCC4(C)CC4)c(F)cc3C)cc(C)n2)ccn1` : ____
Resp: ≤ 100 nM

Req: Reported IC50, molecule `Cc1ccc(NC(=O)NC2CCCCCC2)cc1-c1cc(OCCO)nc(N2CCOCC2)c1` : ____
Resp: ≤ 100 nM

Req: Reported IC50, molecule `CC(=O)Nc1cc(-c2cc(-c3cc(NC(=O)NCCC(C)(C)C#N)c(F)cc3C)cc(C3CC3)n2)ccn1` : ____
Resp: ≤ 100 nM

Req: Reported IC50, molecule `Cc1cc(F)c(NC(=O)NCCC(C)(C)C)cc1-c1cc(OCCO)nc(C2=CCOCC2)c1` : ____
Resp: ≤ 100 nM

Req: Reported IC50, molecule `Cc1cc(F)c(NC(=O)NCCC2(C)CC2)cc1-c1cc(OC2CCN(C)CC2)nc(-c2ccncc2)c1` : ____
Resp: 100 to 500 nM

Req: Reported IC50, molecule `COC(=O)Nc1cc(-c2cc(-c3cc(NC(=O)NCCC4(C)CC4)ccc3F)cc(OCCO)n2)ccn1` : ____
Resp: ≤ 100 nM

Req: Reported IC50, molecule `Cc1ncc(NC(=O)NC2CC(C)(C)C2)cc1-c1cc(OCCO)nc(-c2ccnc(NC(=O)C3CC3)c2)c1` : ____
Resp: ≤ 100 nM

Req: Reported IC50, molecule `Cc1ccc(NC(=O)N[C@H]2C[C@](C)(F)C2)cc1-c1cc(-c2ccnc(NC(=O)C3CC3)c2)nc(C2CC2)c1` : ____
Resp: ≤ 100 nM

Taken from patent US20230357179A1.
